System: U2OS
experiment: Multiplex assay against U2OS
Assay type: toxicity, cell-based
test-settings: human, 24 h, 10 µM, compound concentration 10 uM, replicate 1
Could you label it TRUE if measured Population Normal (%) is 90% or higher, and FALSE otherwise?

Field: example entries. Status: answers known.
compound=Cc1nc(-c2cn3c(n2)-c2ccc(-c4cnn(C(C)(C)C(N)=O)c4)cc2OCC3)n(C(C)C)n1 assigned_label=TRUE
compound=CNCc1ccc(-c2cc(-c3nc(-c4ccc(S(=O)(=O)C(C)C)cc4)cnc3N)on2)cc1 assigned_label=FALSE
compound=Cc1cc(C)cc(-c2cnc3cc(Cl)c(-c4cccc(O)c4)cc3c2OCCCN)c1 assigned_label=FALSE
compound=CC(C)(O)CNc1ncc(-c2ccnc(Nc3ccnc(Cl)c3)n2)c(CC2CC2)n1 assigned_label=FALSE
compound=CN1CCN(c2ccc(OC(F)(F)F)c(Nc3ncc4c(n3)-c3c(c(C(N)=O)nn3CCO)CC4)c2)CC1 assigned_label=TRUE

Reported Population Normal (%) reaches at least 90% for C[C@@H](NCCCc1cccc(C(F)(F)F)c1)c1cccc2ccccc12.Cl [CINACALCET HYDROCHLORIDE] ? TRUE

Please check the record `CN(C)CC#Cc1ccc(OCCCc2sc(N3CCc4cccc(C(=O)Nc5nc6ccccc6s5)c4C3)nc2C(=O)O)c(F)c1` and state if its Population Normal (%) is at or above 90%. TRUE

Could you verify whether the entry `Cc1csc2c(N[C@@H](C)CN3CCN(S(=O)(=O)c4ccc(Cl)c(Cl)c4)CC3)ncnc12` shows Population Normal (%) of no less than 90%? TRUE
